- System: Cyclin-dependent kinase
- Assay: Cyclin-dependent kinase inhibition, % inhibition at 10 nM (library Examples 99-270)
- Type: biochemical
- Experimental Setup: 10 nM compound
Reported % Inhib @ 10 nM values follow for various molecules
Experimental Readout: % Inhib @ 10 nM (%)

>>> endpoint_value("CCNCc1cncc(-c2ccc3[nH]nc(-c4ncc(C(=O)N5CCN(c6cccc7ccccc67)CC5)[nH]4)c3c2)c1C")
74
>>> endpoint_value("CCNCc1cncc(-c2ccc3[nH]nc(-c4ncc(C(=O)N(C)CCc5ccc(OC)c(OC)c5)[nH]4)c3c2)c1C")
37
>>> endpoint_value("CCNCc1cncc(-c2ccc3[nH]nc(-c4ncc(C(=O)N5CCC(Cc6ncccn6)CC5)[nH]4)c3c2)c1C")
33
>>> endpoint_value("CCNCc1cncc(-c2ccc3[nH]nc(-c4ncc(C(=O)N5CCC(c6cccnc6)C5)[nH]4)c3c2)c1C (stereo not shown)")
66
>>> endpoint_value("CCNCc1cncc(-c2ccc3[nH]nc(-c4ncc(C(=O)N5CCC(c6ccn[nH]6)CC5)[nH]4)c3c2)c1C")
62
>>> endpoint_value("CCNCc1cncc(-c2ccc3[nH]nc(-c4ncc(C(=O)NCCC#N)[nH]4)c3c2)c1C")
71
>>> endpoint_value("CCNCc1cncc(-c2ccc3[nH]nc(-c4ncc(C(=O)NC5C6CC7CC(C6)CC5C7)[nH]4)c3c2)c1C (stereo not shown)")
89
